Reference source: the supplement of paper PMC9112550

System: Escherichia coli TOP10
Experiment: shrunken log2 fold change of peptide-encoding DNA abundance (4.5 h post-induction vs induction); higher = less antimicrobial activity (less host growth inhibition)
Settings: time post-induction: 4.5 h; library: site-saturation at positions 5, 18, 19, 20
So basically: shrunken log2 fold change at 0.1 or higher? That is satisfied. Lower than 0.1? That is not satisfied.

Completed entries (count: 3):
# BIOPOLYMER SEQUENCE, CATEGORY
rows = [
    ("RRIRYRPPRLPRPRPRPAFWPRP", "satisfied"),
    ("RRIRERPPRLPRPRPRPEWSPRP", "not satisfied"),
    ("RRIRVRPPRLPRPRPRPHANPRP", "satisfied"),
]

Reported shrunken log2 fold change reaches at least 0.1 for RRIRMRPPRLPRPRPRPHYRPRP ?
not satisfied

Reported shrunken log2 fold change reaches at least 0.1 for RRIRKRPPRLPRPRPRPHLNPRP ?
satisfied

Reported shrunken log2 fold change reaches at least 0.1 for RRIRFRPPRLPRPRPRPKNCPRP ?
satisfied

Reported shrunken log2 fold change reaches at least 0.1 for RRIRYRPPRLPRPRPRPYYIPRP ?
not satisfied

Reported shrunken log2 fold change reaches at least 0.1 for RRIRFRPPRLPRPRPRPKFMPRP ?
not satisfied

Reported shrunken log2 fold change reaches at least 0.1 for RRIRLRPPRLPRPRPRPGKIPRP ?
not satisfied

Reported shrunken log2 fold change reaches at least 0.1 for RRIRYRPPRLPRPRPRPQAHPRP ?
not satisfied

* * *

System: Escherichia coli TOP10
Assay: shrunken log2 fold change of peptide-encoding DNA abundance (4.5 h post-induction vs induction); higher = less antimicrobial activity (less host growth inhibition)
Settings: time post-induction: 4.5 h; library: site-saturation at positions 5, 18, 19, 20
MEASURE: shrunken log2 fold change
Give bare numbers.

# BIOPOLYMER SEQUENCE, OBSERVED VALUE
data = [
    ("RRIRQRPPRLPRPRPRPTAWPRP", 0.591),
    ("RRIRRRPPRLPRPRPRPDYSPRP", -0.263),
    ("RRIRGRPPRLPRPRPRPMICPRP", 0.166),
    ("RRIRSRPPRLPRPRPRPLNGPRP", -0.322),
    ("RRIRCRPPRLPRPRPRPINGPRP", -0.282),
    ("RRIRFRPPRLPRPRPRPAFPPRP", 0.00578),
    ("RRIRFRPPRLPRPRPRPFCQPRP", -0.317),
]

Next:
Please state recorded shrunken log2 fold change (tested on Escherichia coli TOP10) of RRIRHRPPRLPRPRPRPRLIPRP
-0.0786

* * *

Tested on: Escherichia coli TOP10
Assay: shrunken log2 fold change of peptide-encoding DNA abundance (4.5 h post-induction vs induction); higher = less antimicrobial activity (less host growth inhibition)
Conditions: time post-induction: 4.5 h; library: site-saturation at positions 5, 18, 19, 20
So basically: shrunken log2 fold change at -0.06 or higher? That is Condition met. Lower than -0.06? That is Condition not met.

Completed entries (count: 3):
# BIOPOLYMER SEQUENCE, SYSTEM TESTED, CATEGORY
data = [
    ("RRIRIRPPRLPRPRPRPWCWPRP", "Escherichia coli TOP10", "Condition not met"),
    ("RRIRMRPPRLPRPRPRPSLKPRP", "Escherichia coli TOP10", "Condition met"),
    ("RRIRGRPPRLPRPRPRPCPKPRP", "Escherichia coli TOP10", "Condition met"),
]

Reported shrunken log2 fold change reaches at least -0.06 for RRIRMRPPRLPRPRPRPDWQPRP ?
Condition met

Reported shrunken log2 fold change reaches at least -0.06 for RRIRKRPPRLPRPRPRPTTRPRP ?
Condition met

Reported shrunken log2 fold change reaches at least -0.06 for RRIRERPPRLPRPRPRPRFLPRP ?
Condition not met

Reported shrunken log2 fold change reaches at least -0.06 for RRIRPRPPRLPRPRPRPLQCPRP ?
Condition not met

Reported shrunken log2 fold change reaches at least -0.06 for RRIRIRPPRLPRPRPRPTLSPRP ?
Condition not met

Reported shrunken log2 fold change reaches at least -0.06 for RRIRPRPPRLPRPRPRPVKSPRP ?
Condition met

Reported shrunken log2 fold change reaches at least -0.06 for RRIRGRPPRLPRPRPRPPRDPRP ?
Condition met

Reported shrunken log2 fold change reaches at least -0.06 for RRIRGRPPRLPRPRPRPRCSPRP ?
Condition met

Reported shrunken log2 fold change reaches at least -0.06 for RRIRERPPRLPRPRPRPANPPRP ?
Condition met

Reported shrunken log2 fold change reaches at least -0.06 for RRIRFRPPRLPRPRPRPPDCPRP ?
Condition met

Reported shrunken log2 fold change reaches at least -0.06 for RRIRDRPPRLPRPRPRPVLSPRP ?
Condition met

Reported shrunken log2 fold change reaches at least -0.06 for RRIRARPPRLPRPRPRPHCPPRP ?
Condition met

Reported shrunken log2 fold change reaches at least -0.06 for RRIRCRPPRLPRPRPRPPCYPRP ?
Condition not met

Reported shrunken log2 fold change reaches at least -0.06 for RRIRKRPPRLPRPRPRPFNAPRP ?
Condition met

Reported shrunken log2 fold change reaches at least -0.06 for RRIRDRPPRLPRPRPRPGMKPRP ?
Condition met

Reported shrunken log2 fold change reaches at least -0.06 for RRIRRRPPRLPRPRPRPKTKPRP ?
Condition not met

Reported shrunken log2 fold change reaches at least -0.06 for RRIRKRPPRLPRPRPRPEQVPRP ?
Condition met

Reported shrunken log2 fold change reaches at least -0.06 for RRIRERPPRLPRPRPRPYITPRP ?
Condition not met

Reported shrunken log2 fold change reaches at least -0.06 for RRIRTRPPRLPRPRPRPMGGPRP ?
Condition met

Reported shrunken log2 fold change reaches at least -0.06 for RRIRTRPPRLPRPRPRPFARPRP ?
Condition met

* * *

System: Escherichia coli TOP10
Test: shrunken log2 fold change of peptide-encoding DNA abundance (4.5 h post-induction vs induction); higher = less antimicrobial activity (less host growth inhibition)
Details: time post-induction: 4.5 h; library: site-saturation at positions 5, 18, 19, 20
So basically: shrunken log2 fold change at 0.3 or higher? That is yes (1). Lower than 0.3? That is no (0).

# BIOPOLYMER SEQUENCE, SYSTEM TESTED, CATEGORY
records = [
    ("RRIRERPPRLPRPRPRPMPIPRP", "Escherichia coli TOP10", "no (0)"),
    ("RRIRCRPPRLPRPRPRPYFTPRP", "Escherichia coli TOP10", "no (0)"),
    ("RRIRHRPPRLPRPRPRPACRPRP", "Escherichia coli TOP10", "no (0)"),
    ("RRIRGRPPRLPRPRPRPFPSPRP", "Escherichia coli TOP10", "no (0)"),
    ("RRIRRRPPRLPRPRPRPMAYPRP", "Escherichia coli TOP10", "no (0)"),
]

Reported shrunken log2 fold change reaches at least 0.3 for RRIRWRPPRLPRPRPRPRECPRP ?
yes (1)

Reported shrunken log2 fold change reaches at least 0.3 for RRIRFRPPRLPRPRPRPQPDPRP ?
no (0)

Reported shrunken log2 fold change reaches at least 0.3 for RRIRQRPPRLPRPRPRPGRGPRP ?
yes (1)

Reported shrunken log2 fold change reaches at least 0.3 for RRIRFRPPRLPRPRPRPGIYPRP ?
no (0)

Reported shrunken log2 fold change reaches at least 0.3 for RRIRRRPPRLPRPRPRPVIYPRP ?
no (0)

* * *

Tested on: Escherichia coli TOP10;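 note: peptides expressed intracellularly from a pBAD plasmid library in pooled LB shake-flask culture, induced with 0.3% L-arabinose, DNA abundance read by NGS, three biological replicates, DESeq2 with apeglm shrinkage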
Experiment: shrunken log2 fold change of peptide-encoding DNA abundance (4.5 h post-induction vs induction); higher = less antimicrobial activity (less host growth inhibition)
Conditions: time post-induction: 4.5 h; library: site-saturation at positions 5, 18, 19, 20
So basically: shrunken log2 fold change at 0.04 or higher? That is True. Lower than 0.04? That is False.

Completed entries (count: 5):
# BIOPOLYMER SEQUENCE, CATEGORY
rows = [
    ("RRIRPRPPRLPRPRPRPTDMPRP", "True"),
    ("RRIRKRPPRLPRPRPRPEKNPRP", "True"),
    ("RRIRLRPPRLPRPRPRPKGFPRP", "False"),
    ("RRIRIRPPRLPRPRPRPGDTPRP", "False"),
    ("RRIRNRPPRLPRPRPRPESEPRP", "False"),
]

Reported shrunken log2 fold change reaches at least 0.04 for RRIRGRPPRLPRPRPRPRCMPRP ?
True

Reported shrunken log2 fold change reaches at least 0.04 for RRIRIRPPRLPRPRPRPTYFPRP ?
False

Reported shrunken log2 fold change reaches at least 0.04 for RRIRFRPPRLPRPRPRPFPLPRP ?
False

Reported shrunken log2 fold change reaches at least 0.04 for RRIRSRPPRLPRPRPRPNIHPRP ?
True

Reported shrunken log2 fold change reaches at least 0.04 for RRIRMRPPRLPRPRPRPFEMPRP ?
False
